- TARGET_SYSTEM: A1AdoR (Homo sapiens)
- Construct: purchased PerkinElmer ES-010-M400UA
- Sequence (P30542 whole entry): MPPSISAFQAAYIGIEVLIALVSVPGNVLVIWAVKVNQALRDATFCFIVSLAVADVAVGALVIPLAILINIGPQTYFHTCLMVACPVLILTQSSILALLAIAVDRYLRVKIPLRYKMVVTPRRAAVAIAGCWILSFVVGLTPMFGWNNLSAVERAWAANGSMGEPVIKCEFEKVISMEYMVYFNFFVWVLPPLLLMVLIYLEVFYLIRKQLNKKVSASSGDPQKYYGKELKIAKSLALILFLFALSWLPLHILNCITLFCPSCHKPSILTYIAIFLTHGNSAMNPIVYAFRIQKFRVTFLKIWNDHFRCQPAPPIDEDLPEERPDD
- EXPERIMENT_DESCRIPTION: Adenosine receptor binding assay, A1 ([3H]-DPCPX)
- REPORTED_CONDITIONS: ratio A1 vs A2A binding
REPORTED_PROPERTY: A1/A2A Selectivity

# STRUCTURE_SMILES_STRING, TARGET_SYSTEM, RESULT
data = [
    ("Cc1noc2cc(F)c(N3CCN(CCn4c(C(N)=O)c(Cl)c5c4nc(N)n4nc(-c6ccccn6)nc54)CC3)cc12", "A1AdoR (Homo sapiens)", "a (greater than 1000)"),
    ("CC#Cc1nc2c3cc(C#N)n(CCN4CCN(c5ccc(OCCOC)cc5)CC4)c3nc(N)n2n1", "A1AdoR (Homo sapiens)", "a (greater than 1000)"),
]

---

- Test system: phospho-CREB (pCREB)
- EXPERIMENT_DESCRIPTION: Human whole blood phospho-CREB (pCREB) assay / modulation of pCREB in human immune cells
- Assay type: cell-based
- REPORTED_CONDITIONS: agonist (NECA or CGS-21680)-stimulated human blood cells
pEC50: −log10 of the molar value.
molecules and their reported pEC50
REPORTED_PROPERTY: pEC50

# STRUCTURE_SMILES_STRING, TARGET_SYSTEM, RESULT
data = [
    ("COCCOc1ccc(N2CCN(CCn3c(C(N)=O)cc4c3nc(N)n3nc(-c5ccccn5)nc43)CC2)cc1", "phospho-CREB (pCREB)", "< 7.00"),
    ("Cc1noc2cc(F)c(N3CCN(CCn4nc(Cl)c5c4nc(N)n4nc(-c6ccccn6)nc54)CC3)cc12", "phospho-CREB (pCREB)", "≥ 7.70"),
    ("CC#Cc1nc2c3cc(C#N)n(CCN4CCN(c5ccc(OCCOC)cc5)CC4)c3nc(N)n2n1", "phospho-CREB (pCREB)", "< 7.00"),
    ("Cc1c(C(=O)N2CCC2)n(CCN2CCN(c3cc(-c4ncco4)ccc3F)CC2)c2nc(N)n3nc(-c4ccccn4)nc3c12", "phospho-CREB (pCREB)", "7.00 to 7.70"),
    ("CNC(=O)c1c(C)c2c(nc(N)n3nc(-c4ccccn4)nc23)n1CCN1CCN(c2cc(-c3ncco3)ccc2F)CC1", "phospho-CREB (pCREB)", "≥ 7.70"),
    ("Nc1nc2c(c(Cl)nn2CCN2CCN(c3cc(-c4ncco4)ccc3F)CC2)c2nc(-c3ccccn3)nn12", "phospho-CREB (pCREB)", "7.00 to 7.70"),
    ("COC(=O)c1c(C)c2c(nc(N)n3nc(-c4ccccn4)nc23)n1CCN1CCN(c2cc(-c3ncco3)ccc2F)CC1", "phospho-CREB (pCREB)", "< 7.00"),
    ("NC(=O)c1cc2c(nc(N)n3nc(-c4ccccn4)nc23)n1CCN1CCN(c2ccc(OCC(=O)O)cc2)CC1", "phospho-CREB (pCREB)", "7.00 to 7.70"),
    ("Cc1noc2cc(F)c(N3CCN(CCn4cnc5c4nc(N)n4nc(-c6ccccn6)nc54)CC3)cc12", "phospho-CREB (pCREB)", "< 7.00"),
    ("N#Cc1c(Cl)c2c(nc(N)n3nc(-c4ccccn4)nc23)n1CCN1CCN(c2cc(-c3ncco3)ccc2F)CC1", "phospho-CREB (pCREB)", "7.00 to 7.70"),
]

---

compounds and their reported pEC50
- Test system: phospho-CREB (pCREB)
- EXPERIMENT_DESCRIPTION: Human whole blood phospho-CREB (pCREB) assay / modulation of pCREB in human immune cells
- Type: cell-based
- REPORTED_CONDITIONS: agonist (NECA or CGS-21680)-stimulated human blood cells
pEC50: −log10 of the molar value.

# STRUCTURE_SMILES_STRING, pEC50
records = [
    ("Cc1noc2cc(F)c(N3CCN(CCn4c(C#N)cc5c4nc(N)n4nc(-c6ccccn6)nc54)CC3)cc12", "< 7.00"),
    ("CS(=O)(=O)NC(=O)COc1ccc(N2CCN(CCn3c(C#N)cc4c3nc(N)n3nc(-c5ccccn5)nc43)CC2)cc1", "< 7.00"),
    ("Cc1cn(CCN2CCN(c3cc(-c4ncco4)ccc3F)CC2)c2nc(N)n3nc(-c4ccccn4)nc3c12", "7.00 to 7.70"),
    ("CC#Cc1nc2c3ncn(CCN4CCN(c5cc(-c6ncco6)ccc5F)CC4)c3nc(N)n2n1", "7.00 to 7.70"),
    ("Cc1c(C(N)=O)n(CCN2CCN(c3cc(-c4ncco4)ccc3F)CC2)c2nc(N)n3nc(-c4ccccn4)nc3c12", "≥ 7.70"),
    ("Cc1c(C(=O)O)n(CCN2CCN(c3cc(-c4ncco4)ccc3F)CC2)c2nc(N)n3nc(-c4ccccn4)nc3c12", "≥ 7.70"),
    ("COCCOc1ccc(N2CCN(CCn3c(C#N)cc4c3nc(N)n3nc(-c5ccccn5)nc43)CC2)cc1", "< 7.00"),
    ("CNC(=O)c1cc2c(nc(N)n3nc(-c4ccccn4)nc23)n1CCN1CCN(c2cc(-c3ncco3)ccc2F)CC1", "< 7.00"),
    ("Cc1noc2cc(F)c(N3CCN(CCn4c(C(N)=O)c(Cl)c5c4nc(N)n4nc(-c6ccccn6)nc54)CC3)cc12", "≥ 7.70"),
    ("N#Cc1cc2c(nc(N)n3nc(-c4ccccn4)nc23)n1CCN1CCN(c2cc(-c3ncco3)ccc2F)CC1", "< 7.00"),
    ("CS(=O)(=O)NC(=O)COc1ccc(N2CCN(CCn3c(C#N)c(Cl)c4c3nc(N)n3nc(-c5ccccn5)nc43)CC2)cc1", "7.00 to 7.70"),
    ("Cc1c(C(=O)NC2CC2)n(CCN2CCN(c3cc(-c4ncco4)ccc3F)CC2)c2nc(N)n3nc(-c4ccccn4)nc3c12", "< 7.00"),
    ("NC(=O)c1cc2c(nc(N)n3nc(-c4ccccn4)nc23)n1CCN1CCN(c2cc(-c3ncco3)ccc2F)CC1", "7.00 to 7.70"),
    ("Nc1nc2c(cc(C(=O)O)n2CCN2CCN(c3cc(-c4ncco4)ccc3F)CC2)c2nc(-c3ccccn3)nn12", "< 7.00"),
    ("Cc1noc2cc(F)c(N3CCN(CCn4c(C#N)c(Cl)c5c4nc(N)n4nc(-c6ccccn6)nc54)CC3)cc12", "7.00 to 7.70"),
    ("CC#Cc1nc2c3cc(C#N)n(CCN4CCN(c5cc(-c6ncco6)ccc5F)CC4)c3nc(N)n2n1", "< 7.00"),
]

---

pIC50: −log10 of the molar value.
These compounds were tested on human A2A AdoR (Homo sapiens); pIC50 is the recorded read-out.

# STRUCTURE_SMILES_STRING, pIC50
rows = [
    ("Cc1noc2cc(F)c(N3CCCN(CCn4c(C(=O)O)c(Cl)c5c4nc(N)n4nc(-c6ccccn6)nc54)CC3)cc12", "< 7.00"),
    ("Cc1c(C(=O)O)n(CCN2CCCN(c3cc(-c4ncco4)ccc3F)CC2)c2nc(N)n3nc(-c4ccccn4)nc3c12", "7.00 to 7.70"),
    ("Cc1c(C(=O)N2CCC2)n(CCN2CCN(c3cc(-c4ncco4)ccc3F)CC2)c2nc(N)n3nc(-c4ccccn4)nc3c12", "≥ 7.70"),
    ("CC#Cc1nc2c3cc(C#N)n(CCN4CCN(c5cc(-c6ncco6)ccc5F)CC4)c3nc(N)n2n1", "≥ 7.70"),
    ("Nc1nc2c(ncn2CCN2CCc3ncc(C4COC4)cc3C2)c2nc(-c3ccccn3)nn12", "7.00 to 7.70"),
    ("Cc1noc2cc(F)c(N3CCN(CCn4cnc5c4nc(N)n4nc(-c6ccccn6)nc54)CC3)cc12", "≥ 7.70"),
    ("COC(=O)c1c(C)c2c(nc(N)n3nc(-c4ccccn4)nc23)n1CCN1CCCN(c2cc3c(C)noc3cc2F)CC1", "≥ 7.70"),
    ("NC(=O)c1c(Cl)c2c(nc(N)n3nc(-c4ccccn4)nc23)n1CCN1CCN(c2cc(-c3ncco3)ccc2F)CC1", "≥ 7.70"),
]

---

compounds and their reported pIC50
- TARGET_SYSTEM: human A2A AdoR (Homo sapiens, UniProt P29274)
- Construct: purchased PerkinElmer RBHA2AM400UA
- Sequence (P29274 whole entry): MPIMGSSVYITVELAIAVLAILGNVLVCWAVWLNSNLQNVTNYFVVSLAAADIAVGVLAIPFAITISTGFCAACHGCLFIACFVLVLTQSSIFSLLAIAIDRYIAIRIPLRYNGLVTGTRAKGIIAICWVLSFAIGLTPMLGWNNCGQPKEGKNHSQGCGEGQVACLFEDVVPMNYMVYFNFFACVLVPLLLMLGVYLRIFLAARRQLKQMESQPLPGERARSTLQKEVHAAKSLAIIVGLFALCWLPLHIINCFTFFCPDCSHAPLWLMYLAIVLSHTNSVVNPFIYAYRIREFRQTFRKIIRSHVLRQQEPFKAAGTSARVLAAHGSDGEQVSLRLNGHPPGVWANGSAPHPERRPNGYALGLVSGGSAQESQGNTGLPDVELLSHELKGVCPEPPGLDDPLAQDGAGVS
- EXPERIMENT_DESCRIPTION: Adenosine receptor binding assay, A2A ([3H]-CGS-21680)
- REPORTED_CONDITIONS: membranes of HEK-293 cells expressing human A2A AdoR; read-out: hA2A IC50
pIC50: −log10 of the molar value.
REPORTED_PROPERTY: pIC50

# STRUCTURE_SMILES_STRING, RESULT
data = [
    ("Nc1nc2c(ncn2CCN2CCc3ncc(-c4nccs4)cc3C2)c2nc(-c3ccccn3)nn12", "≥ 7.70"),
    ("COC(=O)c1c(C)c2c(nc(N)n3nc(-c4ccccn4)nc23)n1CCN1CCN(c2cc(-c3ncco3)ccc2F)CC1", "≥ 7.70"),
    ("Cc1noc2cc(F)c(N3CCN(CCn4c(C#N)c(Cl)c5c4nc(N)n4nc(-c6ccccn6)nc54)CC3)cc12", "≥ 7.70"),
    ("N#Cc1cc2c(nc(N)n3nc(-c4ccccn4)nc23)n1CCN1CCN(c2cc(-c3ncco3)ccc2F)CC1", "≥ 7.70"),
    ("N#Cc1c(Cl)c2c(nc(N)n3nc(-c4ccccn4)nc23)n1CCN1CCN(c2cc(-c3ncco3)ccc2F)CC1", "≥ 7.70"),
    ("Cc1cn(CCN2CCN(c3cc(-c4ncco4)ccc3F)CC2)c2nc(N)n3nc(-c4ccccn4)nc3c12", "≥ 7.70"),
    ("CC#Cc1nc2c3cc(C#N)n(CCN4CCN(c5ccc(OCCOC)cc5)CC4)c3nc(N)n2n1", "≥ 7.70"),
    ("CNC(=O)c1c(C)c2c(nc(N)n3nc(-c4ccccn4)nc23)n1CCN1CCN(c2cc(-c3ncco3)ccc2F)CC1", "≥ 7.70"),
    ("Nc1nc2c(ncn2CCN2CCN(c3cc(-n4cccn4)ccc3F)CC2)c2nc(-c3ccccn3)nn12", "≥ 7.70"),
    ("COC(=O)c1c(C)c2c(nc(N)n3nc(-c4ccccn4)nc23)n1CCN1CCN(c2cc(C)ncc2F)CC1", "≥ 7.70"),
    ("Cc1noc2cc(F)c(N3CCN(CCn4nc(Cl)c5c4nc(N)n4nc(-c6ccccn6)nc54)CC3)cc12", "≥ 7.70"),
    ("Nc1nc2c(c(Cl)nn2CCN2CCN(c3cc(-c4ncco4)ccc3F)CC2)c2nc(-c3ccccn3)nn12", "≥ 7.70"),
    ("Cc1noc2cc(F)c(N3CCN(CCn4c(C(N)=O)c(Cl)c5c4nc(N)n4nc(-c6ccccn6)nc54)CC3)cc12", "≥ 7.70"),
    ("CC#Cc1nc2c3cc(C#N)n(CCN4CCN(c5ccc6onc(C)c6c5F)CC4)c3nc(N)n2n1", "≥ 7.70"),
    ("Cc1c(C(=O)O)n(CCN2CCN(c3ccc(C#N)cc3F)CC2)c2nc(N)n3nc(-c4ccccn4)nc3c12", "≥ 7.70"),
    ("Cc1c(C(=O)NC2CC2)n(CCN2CCN(c3cc(-c4ncco4)ccc3F)CC2)c2nc(N)n3nc(-c4ccccn4)nc3c12", "≥ 7.70"),
    ("Nc1nc2c(c(Cl)c(C(=O)O)n2CCN2CCN(c3ccc(F)cc3F)CC2)c2nc(-c3ccccn3)nn12", "≥ 7.70"),
]
